For each record, write down the corresponding MIC.
system: Staphylococcus epidermidis; assay: In vitro antibacterial activity against Staphylococcus epidermis C2235; assay type: functional
Answers are plain numbers, in µg/mL.

Take a look at these entries with their results.
compound | recorded result
CC(=O)NC[C@H]1CN(c2ccc(N3CCC(=CC(=O)[O-])CC3)c(F)c2)C(=O)O1.[Na+] | 1
CC(=O)C=C1CCN(c2ccc(N3C[C@H](CNC(C)=O)OC3=O)cc2F)CC1 | 8
CCOC(=O)/C(C#N)=C1/CCN(c2ccc(N3C[C@H](CNC(C)=O)OC3=O)cc2F)C1 | 8
CC(=O)NC[C@H]1CN(c2ccc(N3CCC(=C(C)C#N)CC3)c(F)c2)C(=O)O1 | 2

Each of the following entries comes with a recorded value; kindly state MIC for each.
1. CCOC(=O)C(Cl)=C1CCN(c2ccc(N3C[C@H](CNC(C)=O)OC3=O)cc2F)CC1
2. CCOC(=O)C(C#N)=C1CCN(c2ccc(N3C[C@H](CNC(C)=O)OC3=O)cc2F)CC1
3. CCOC(=O)C=C1CCN(c2ccc(N3C[C@H](CNC(C)=O)OC3=O)cc2F)CC1
4. CC(=O)NC[C@H]1CN(c2ccc(N3CCC(=CC(C)O)CC3)c(F)c2)C(=O)O1 (stereo partly drawn)
5. CO/N=C(\C)C=C1CCN(c2ccc(N3C[C@H](CNC(C)=O)OC3=O)cc2F)CC1
6. CC(=O)NC[C@H]1CN(c2ccc(N3CCC(=C/C(C)=N/O)CC3)c(F)c2)C(=O)O1

Ans.
4
2
8
4
8
4
